- Test system: Noggin (protein binding on small-molecule microarray)
- assay-overview: Noggin binders on small-molecule microarray, primary screen, biochemical, 635/667 nm fluorescence (AID 1095);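 also: score merges 667 nm feature fluorescence with signal to noise over triplicate slides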
- protocol-conditions: 635 nm fluorescence, higher = more signal
assay-metric: composite z-score

Known results for compounds:
INSERT INTO results (compound, readout_value) VALUES
  ('COc1ccc(C#Cc2ccc3c(c2)[C@]2(C(=O)N3)[C@H](c3ccc(O)cc3)N3[C@H](c4ccccc4)[C@H](c4ccccc4)OC(=O)[C@H]3[C@@H]2C(=O)NC[C@H](O)c2ccccc2)cc1', 0.897),
  ('COc1cc(C(O)C2C=CC3C(=O)N(c4ccccc4)C(=O)C3N2Nc2ccc(C#N)cc2)cc(OC)c1OC (stereo not given)', -0.0742),
  ('C=CCC(OC(C)=O)[C@@H]1[C@@H](N(Cc2cccc3ccccc23)C(=O)c2cccc3ccccc23)c2cc(OCCCO)ccc2N1C(=O)c1ccc2ccccc2n1 (stereo not given in full)', 0.282),
  ('C=CCOC(=O)[C@@H]1[C@H]2C(=O)O[C@H](c3ccccc3)[C@H](c3ccccc3)N2[C@H](c2ccc(OCCOC(=O)[C@@H]3C[C@@H]4C(=O)NCC(=O)N4[C@@H]3c3cccc(OCCO)c3)cc2)[C@@]12C(=O)Nc1ccc(I)cc12', 1.14);

Attention now turns to another entry.
q: Reported composite z-score for COCCOC(=O)N1C(=O)[C@@]2(c3cc(C#CCNC(N)=O)ccc31)[C@H](C(=O)N1CCc3cc(OC)c(OC)cc3C1)[C@H]1C(=O)O[C@H](c3ccccc3)[C@H](c3ccccc3)N1[C@@H]2c1ccc(OCCO)cc1 : what is it?
a: 1.3

* * *

- assay-overview: Plasmodium falciparum growth inhibition, primary screen, strain 3D7, DAPI fluorescence, 100 nL (AID 1184);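 also: parasites grown inside human red blood cells in medium with human serum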
- protocol-conditions: P. falciparum 3D7 growth, 3 d, higher = more signal
assay-metric: z-score
One number for each entry.

INSERT INTO assay_data (molecule, readout_value) VALUES
  ('CC(C)N1CC=CC23O[C@@H]4C=CCOC(=O)[C@@H]4[C@H]2C(=O)N(CCO)[C@@H]3C1=O (stereo partly drawn)', 0.74),
  ('O=C1C=CC(=O)[C@@H]2CC(COc3ccccc3)=C3[C@@H](CCc4ccccc4)OB(O)C[C@@H]3[C@H]12', -1.73),
  ('CCCC[C@H]1OB(O)C[C@H]2C1=C(C)C[C@H]1C(=O)N(Cc3ccccc3)C(=O)[C@H]12', 0.508),
  ('O=C1OCCC/C=C\[C@H]2OC34C=CCN(Cn5nnc6ccccc65)C(=O)[C@H]3N(CCCCCO)C(=O)[C@@H]4C12 (stereo partly drawn)', 0.961),
  ('Cc1ccc(S[C@]2(C(=O)NCC(C)C)CC(=O)N(Cc3ccccc3Cl)[C@@H]2c2ccc(CO)cc2)cc1', 0.423),
  ('COCCOC(=O)N1C(=O)[C@@]2(c3cc(C#CCCO)ccc31)[C@H](C(=O)NC[C@H](O)c1ccccc1)[C@H]1C(=O)O[C@H](c3ccccc3)[C@H](c3ccccc3)N1[C@@H]2c1ccc(O)cc1', 0.363);

I would be grateful if you could provide z-score for each of the following entries.
1. COCCOC(=O)N1C(=O)[C@@]2(c3cc(C#CCCO)ccc31)[C@H](c1ccc(O)cc1)N1[C@H](c3ccccc3)[C@H](c3ccccc3)OC(=O)[C@H]1[C@@H]2C(N)=O
2. [N-]=[N+]=NCc1ccccc1[C@@H]1OC(c2ccc(OCCCO)cc2)=N[C@]1(Cc1ccccc1)C(=O)N1CCCCC1
3. CCCNC(=O)[C@@H]1c2ccccc2C(=O)N(Cc2ccccc2)[C@H]1c1ccc(CO)cc1
4. C=CCC(OC(C)=O)[C@@H]1[C@@H](N(Cc2cccc3ccccc23)C(=O)c2cccc3ccccc23)c2cc(OCCCO)ccc2N1C(=O)c1ccc2ccccc2n1 (stereo partly drawn)
5. COc1cc2c(cc1OC)CN(C(=O)[C@@H]1[C@H]3C(=O)O[C@H](c4ccccc4)[C@H](c4ccccc4)N3[C@H](c3ccccc3OCCO)[C@@]13C(=O)Nc1ccc(C#CCNC(N)=O)cc13)CC2
6. COCCOC(=O)N1C(=O)[C@@]2(c3cc(C#CCNC(N)=O)ccc31)[C@H](C(=O)N1CCN(c3ncccn3)CC1)[C@H]1C(=O)O[C@H](c3ccccc3)[C@H](c3ccccc3)N1[C@@H]2c1ccccc1OCCO

a:
[-0.662, -2.23, -1.62, -1.29, -2.17, -2.4]

q: Given the molecule CC(C)c1ccc(NN2C(C(O)c3ccc(N(C)C)cc3)C=CC3C(=O)N(c4ccccc4)C(=O)C32)cc1 (stereo not drawn) , what is its reported z-score?
a: -0.286

Where do these numbers come from? They come from PubChem BioAssay.
